Experiment: Antiproliferative effects against human SHEP cells after 72 hrs by Alamar blue assay
Note to self: class labels come from recorded IC50, ranges listed here: I (below 4 µM), II (4 µM to below 20 µM), III (20 µM or more)

Worked examples follow.
Item smiles	Class name
Oc1ccc(C2=Cc3cc(CN4CCOCC4)c(O)cc3OC2)cc1	III
C=CCN1COc2cc3c(cc2C1)C=C(c1ccc(O)cc1)CO3	II

QUERY: Hi, small favor: classify CCN(CC)Cc1cc(C2=Cc3cc(CN(CC)CC)c(O)cc3OC2)ccc1O by its IC50 when you get a moment.
RESULT: I

QUERY: Hi, small favor: classify Oc1ccc(C2=COc3cc(O)c(CNCc4ccccc4)cc3C2)cc1 by its IC50 when you get a moment.
RESULT: II

QUERY: Hi, small favor: classify Oc1ccc(C2=Cc3cc(CN4CCCCC4)c(O)cc3OC2)cc1CN1CCCCC1 by its IC50 when you get a moment.
RESULT: II

QUERY: Hi, small favor: classify CCN(CC)Cc1cc2c(cc1O)OCC(c1ccc(O)cc1)=C2 by its IC50 when you get a moment.
RESULT: III

QUERY: Hi, small favor: classify CC(C)NCc1cc2c(cc1O)OC=C(c1ccc(O)cc1)C2 by its IC50 when you get a moment.
RESULT: II

QUERY: Hi, small favor: classify CCCCCCCN1COc2cc3c(cc2C1)C=C(c1ccc(O)cc1)CO3 by its IC50 when you get a moment.
RESULT: I

QUERY: Hi, small favor: classify CN(C)Cc1cc2c(cc1O)OC=C(c1ccc(O)cc1)C2 by its IC50 when you get a moment.
RESULT: II

QUERY: Hi, small favor: classify CCCCCCCNCc1cc2c(cc1O)OC=C(c1ccc(O)cc1)C2 by its IC50 when you get a moment.
RESULT: I

QUERY: Hi, small favor: classify CC(C)N1COc2cc3c(cc2C1)C=C(c1ccc(O)cc1)CO3 by its IC50 when you get a moment.
RESULT: II

QUERY: Hi, small favor: classify CCCCOCCCNCc1cc2c(cc1O)OC=C(c1ccc(O)cc1)C2 by its IC50 when you get a moment.
RESULT: II

QUERY: Hi, small favor: classify OCCN1COc2cc3c(cc2C1)C=C(c1ccc(O)cc1)CO3 by its IC50 when you get a moment.
RESULT: III

QUERY: Hi, small favor: classify Oc1ccc(C2=COc3cc(O)c(CNCCc4ccccc4)cc3C2)cc1 by its IC50 when you get a moment.
RESULT: I
